The reported numbers originate from patent US20240374595A1.

Provide the recorded log10(IC50) for the entries that follow.
# tested.system: PD-L1 (Homo sapiens (Human), UniProt Q9NZQ7)
# Sequence (Q9NZQ7 19-238): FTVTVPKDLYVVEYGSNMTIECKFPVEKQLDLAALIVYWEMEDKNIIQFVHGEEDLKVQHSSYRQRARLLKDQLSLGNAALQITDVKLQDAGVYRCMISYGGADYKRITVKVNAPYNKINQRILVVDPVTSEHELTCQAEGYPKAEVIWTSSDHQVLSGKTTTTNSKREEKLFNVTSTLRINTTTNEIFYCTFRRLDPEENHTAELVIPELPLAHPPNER
# assay.name: PD-L1 HTRF assay (PD-1/PD-L1 interaction)
# setup.conditions: PD-L1 His 6 nM, PD-1 Fc 6 nM; inhibitors 3-fold diluted from 20 μM
Give log10 of IC50, with IC50 taken in nM.

Example cases with answers are listed next.
Cc1c(NC(=O)c2ccc(CNCCO)cn2)cccc1-c1cccc(OCCCN2CCC(O)CC2)c1C	0.57
COc1cc(OCc2cccc(-c3cccc(COc4cc(OC)c(CN5CCCC[C@H]5C(=O)O)cc4Cl)c3C)c2C)c(Cl)cc1CO	0.60
Cc1c(COc2cc(OCc3cncc(C#N)c3)c(C3=NCC(O)CN3)cc2Cl)cccc1-c1cccc(OCCCN2CCC(O)CC2)c1C (stereo not shown)	0.08
Cc1c(COc2cc(OCc3cncc(C#N)c3)c(C3=NCCCN3CCO)cc2Cl)cccc1-c1cccc(OCCCN2CCC(O)CC2)c1C	0.18

I have 3 molecules here; please give me log10(IC50) for each one.
1. Cc1c(COc2ccc(C3=NCCCN3CCO)c(OCc3cccc(C#N)c3)c2)cccc1-c1ccccc1
2. CC(=O)NCc1c[nH]c(-c2ccc(OCc3cccc(-c4ccccc4)c3C)cc2OCc2cccc(C#N)c2)n1
3. Cc1c(COc2cc(OCc3cncc(C#N)c3)c(C3=NCC(O)CN3)cc2Cl)cccc1-c1cccc(OCC(CN2CCC(O)CC2)c2ccccc2)c1C (stereo not shown)

Reply:
[2.04, 4.28, 1.48]

====

Provide the recorded IC50 for the entries that follow.
# tested.system: UniProtKB Q9NZQ7
# assay.name: PD-L1 HTRF assay (PD-1/PD-L1 interaction)
# setup.conditions: PD-L1 His 6 nM, PD-1 Fc 6 nM; inhibitors 3-fold diluted from 20 μM
One number for each entry, in nM.

I have 6 compounds here; please give me IC50 for each one.
1. Cc1c(COc2ccc(C3=NCCCN3)c(OCc3cccc(C#N)c3)c2)cccc1-c1ccccc1
2. Cc1c(COc2ccc(C3=NCCN3C)c(OCc3cccc(C#N)c3)c2)cccc1-c1ccccc1
3. Cc1c(COc2cc(OCc3cncc(C#N)c3)c(C3=NCC(O)CN3)cc2Cl)cccc1-c1cccc(OCC(CO)c2ccccc2)c1C (stereo not shown)
4. CC(=O)NCC/N=C(\NCCNC(C)=O)c1ccc(OCc2cccc(-c3ccccc3)c2C)cc1OCc1cccc(C#N)c1
5. Cc1c(COc2cc(OCc3cncc(C#N)c3)c(C3=NCC(O)CN3CCO)cc2Cl)cccc1-c1cccc(OCCCN2CCC(O)CC2)c1C (stereo not shown)
6. Cc1c(COc2cc(OCc3cncc(C#N)c3)c(C3=NC(C(=O)O)CN3)cc2Cl)cccc1-c1cccc(OCCCN2CCC(O)CC2)c1C (stereo not shown)

Reply:
1: 150; 2: 320; 3: 7.4; 4: 330; 5: 14; 6: 1.2

I have 8 compounds here; please give me IC50 for each one.
1. Cc1c(COc2ccc(C3=NCC(O)CN3)c(OCc3cccc(C#N)c3)c2)cccc1-c1ccccc1 (stereo not shown)
2. Cc1c(COc2ccc(-c3nc(CO)c[nH]3)c(OCc3cccc(C#N)c3)c2)cccc1-c1ccccc1
3. Cc1c(COc2cc(OCc3cncc(C#N)c3)c(C3=NC(C(=O)O)CCN3)cc2Cl)cccc1-c1cccc(OCCCN2CCC(O)CC2)c1C (stereo not shown)
4. Cc1c(COc2ccc(C3=NCC(O)CN3)c(OCc3cncc(C#N)c3)c2)cccc1-c1ccccc1 (stereo not shown)
5. Cc1c(NC(=O)c2ccc(C3=NCCC(C(=O)O)N3)cn2)cccc1-c1cccc(NC(=O)c2ccc(C3=NCCC(C(=O)O)N3)cn2)c1C (stereo not shown)
6. Cc1c(NC(=O)c2ccc(CNCCO)cn2)cccc1-c1cccc(NC(=O)c2ccc(CNCCO)cn2)c1C
7. Cc1c(COc2cc(OCc3cncc(C#N)c3)c(C3=NCCN3CC(=O)O)cc2Cl)cccc1-c1cccc(OCCCN2CCC(O)CC2)c1C
8. Cc1c(NC(=O)c2ccc(CO)cn2)cccc1-c1cccc(NC(=O)c2ccc(CO)cn2)c1C

Reply:
[100, 16000, 1.2, 15, 0.3, 1, 1.1, 3.2]

I have 6 compounds here; please give me IC50 for each one.
1. Cc1c(COc2cc(OCc3cncc(C#N)c3)c(C3=NCC(O)CN3)cc2Cl)cccc1-c1cccc(COc2cc(OCc3cncc(C#N)c3)c(C3=NCC(O)CN3)cc2Cl)c1C (stereo not shown)
2. Cc1c(COc2ccc(-c3nccn3C)c(OCc3cccc(C#N)c3)c2)cccc1-c1ccccc1
3. Cc1c(COc2ccc(/C(=N/CCO)NCCO)c(OCc3cccc(C#N)c3)c2)cccc1-c1ccccc1
4. Cc1c(COc2ccc(C3=NCCN3CCO)c(OCc3cccc(C#N)c3)c2)cccc1-c1ccccc1
5. Cc1c(NC(=O)c2ccc(CNCCO)cn2)cccc1-c1cccc(NC(=O)c2ccc(CN3CC[C@@H](O)C3)cn2)c1C
6. Cc1c(COc2ccc(C3=NCCN3)c(OCc3cccc(C#N)c3)c2)cccc1-c1ccccc1

Reply:
1. 6.7
2. 5400
3. 170
4. 53
5. 0.8
6. 280

I have 4 compounds here; please give me IC50 for each one.
1. COc1cc(OCc2cccc(-c3cccc(COc4cc(OC)c(CNCCO)cc4Cl)c3C)c2C)c(Cl)cc1CNCCO
2. Cc1c(COc2ccc(C3=NCCCN3C)c(OCc3cccc(C#N)c3)c2)cccc1-c1ccccc1
3. Cc1c(COc2cc(OCc3cncc(C#N)c3)c(C3=NCCN3CCO)cc2Cl)cccc1-c1cccc(OCCCN2CCC(O)CC2)c1C
4. Cc1c(COc2cc(OCc3cncc(C#N)c3)c(C3=NCC(OCC(=O)O)CN3)cc2Cl)cccc1-c1cccc(OCCCN2CCC(O)CC2)c1C (stereo not shown)

Reply:
1: 1; 2: 300; 3: 3.8; 4: 0.8
